B1: LINE1-full (parent)
chain: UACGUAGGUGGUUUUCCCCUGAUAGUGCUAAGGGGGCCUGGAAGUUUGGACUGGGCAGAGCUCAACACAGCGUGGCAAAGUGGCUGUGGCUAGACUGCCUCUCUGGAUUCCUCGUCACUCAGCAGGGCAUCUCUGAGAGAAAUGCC

variants of: B1; assay: self-cleavage, relative activity (ratio to wild type); higher = more cleavage; in vitro, sequencing; the parent is a self-cleaving ribozyme
For each entry below, report its self-cleavage value.
Give only the figure.

Specify self-cleavage for A57U U130C and stop.
0.13

In one line, give reported self-cleavage of the entry G35U C113U .
1.09

Output self-cleavage of G55C A94C
0

Give self-cleavage for A107G A117U
1.85
